Field: protein stability index. Provide a value for each of the variants that follow.
B1: TRIM63 (parent)
chain: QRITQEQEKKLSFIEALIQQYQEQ

# Variants of: B1
# Assay method text: protein stability index of a GFP-peptide fusion (GPS, HEK-293T) (PSI 1-6); higher = more stable;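 also: lentivirally expressed fusions sorted by FACS into six bins by GFP to DsRed ratio, PSI derived from sequencing read proportions per bin multiplied by bin number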
# Conditions: c terminus: a fixed tail appended
Output: the number by itself.

**Query** Param item = QRITQEQEKKLSFINALIQQYQEQ [E15N] ; retrieve measured protein stability index.
**Result** 2.04

**Query** Look at this variant and give its reported protein stability index. QRITTEQEKKLSFIEALIQQYQEQ [Q5T]
**Result** 2.58

**Query** Field request: protein stability index | item: QRIRQEQEKKLSFIEALIQQYQEQ [T4R]
**Result** 2.79

**Query** Given the variant QRITQEIEKKLSFIEALIQQYQEQ [Q7I] , what is its reported protein stability index?
**Result** 4.42

**Query** Given the variant QRITQEQEKKLSFIEALIQQYQGQ [E23G] , what is its reported protein stability index?
**Result** 2.57

**Query** GET /values?readout=protein stability index&item= QRITQEQEKKLSFIEALIQQYQKQ [E23K]
**Result** 2.4

**Query** Name the reported protein stability index value associated with the variant QRITQEQEKKLSFIEALIQCYQEQ [Q20C]
**Result** 2.23

**Query** Reported protein stability index for QRITQEFEKKLSFIEALIQQYQEQ [Q7F] : what is it?
**Result** 2.02

**Query** Give its protein stability index value. Item: QRITQEQEKKLSFIEALIQGYQEQ [Q20G]
**Result** 3.11

**Query** Given the entry QRITQLQEKKLSFIEALIQQYQEQ [E6L] , report its measured protein stability index.
**Result** 1.8

**Query** Quick check: protein stability index of QRITQEQEKKLSFIEALICQYQEQ [Q19C] ?
**Result** 2.6

**Query** Query: protein stability index; subject: QRITQEQEKDLSFIEALIQQYQEQ [K10D]
**Result** 3.67

**Query** I'd like to know its protein stability index. The variant in question is PRITQEQEKKLSFIEALIQQYQEQ [Q1P]
**Result** 2.17

**Query** Consider the variant QRITQEQEKKLSFIEALIQQYQLQ [E23L] and give its measured protein stability index.
**Result** 2.65

**Query** Please look up its protein stability index: QRITQEQEKKLSFFEALIQQYQEQ [I14F]
**Result** 3

**Query** Given the entry QRITQEQEKKLSFIEALIQQYGEQ [Q22G] , report its measured protein stability index.
**Result** 2.89

**Query** Report protein stability index for QRITQEGEKKLSFIEALIQQYQEQ [Q7G] please.
**Result** 1.83

**Query** Which protein stability index value is on record for QRITQEQEKKLVFIEALIQQYQEQ [S12V] ?
**Result** 1.81

**Query** Reported protein stability index for QRITQEQEKKLSFIEALIQQYQTQ [E23T] : what is it?
**Result** 1.94

**Query** Name the recorded protein stability index for QVITQEQEKKLSFIEALIQQYQEQ [R2V] .
**Result** 2.72

**Query** Which protein stability index value is on record for QRITQEQEKKLSSIEALIQQYQEQ [F13S] ?
**Result** 4.52

**Query** What value of measured protein stability index is listed for QRITQEQEKKLSFIEALIQQQQEQ [Y21Q] ?
**Result** 2.75

**Query** I have this variant here, QRITQEQEKKRSFIEALIQQYQEQ [L11R] , and I need its recorded protein stability index.
**Result** 2.24

**Query** Return reported protein stability index; argument: QRITQEQEKKLSYIEALIQQYQEQ [F13Y]
**Result** 2.62

**Query** Value lookup for protein stability index; key = QRITQEQFKKLSFIEALIQQYQEQ [E8F]
**Result** 2.03

**Query** Dear colleague, I am looking for the recorded protein stability index of the following variant: QRITQEQEKKLSFIEALIQQIQEQ [Y21I]
**Result** 1.84

**Query** Value lookup for protein stability index; key = QRITQEQEKKLSTIEALIQQYQEQ [F13T]
**Result** 4.78

**Query** Name the reported protein stability index value associated with the variant QRITQEQERKLSFIEALIQQYQEQ [K9R]
**Result** 2.74

**Query** Dear colleague, I am looking for the recorded protein stability index of the following variant: QRITQEQEKKLSFCEALIQQYQEQ [I14C]
**Result** 2.02

**Query** GET /values?readout=protein stability index&item= QRITQEQEKHLSFIEALIQQYQEQ [K10H]
**Result** 2.7

**Query** Would you mind telling me what protein stability index value was observed for QCITQEQEKKLSFIEALIQQYQEQ [R2C] ?
**Result** 2.85

**Query** Which value of protein stability index has been reported for QRITQEQEKKLSFIEANIQQYQEQ [L17N] in the records?
**Result** 4.73

**Query** Look up protein stability index: QRITQEQEKKLSFIQALIQQYQEQ [E15Q]
**Result** 2.23

**Query** Entry under review: QRITQEQEPKLSFIEALIQQYQEQ [K9P] . Reported protein stability index?
**Result** 3.01

**Query** Record request: protein stability index value, item QRITQEQEKKLSFIEALIQQYNEQ [Q22N]
**Result** 2.79

**Query** Suppose we examine the variant QRITQEQEHKLSFIEALIQQYQEQ [K9H] ; what protein stability index value has been reported?
**Result** 2.6

**Query** Using the record for GRITQEQEKKLSFIEALIQQYQEQ [Q1G] , report its protein stability index.
**Result** 2.13

**Query** Could you share which protein stability index value was measured for QRITGEQEKKLSFIEALIQQYQEQ [Q5G] ?
**Result** 2.62

**Query** Param item = QGITQEQEKKLSFIEALIQQYQEQ [R2G] ; retrieve measured protein stability index.
**Result** 2.35

**Query** Looking for the measured protein stability index of QRITQEQEKKLSFIEALIQQYKEQ [Q22K] , can you help?
**Result** 2.03

**Query** So what's the measured protein stability index for this one? QRITQEQSKKLSFIEALIQQYQEQ [E8S]
**Result** 2.17

**Query** Given the entry QRITQEQEKKLSFIEALPQQYQEQ [I18P] , report its measured protein stability index.
**Result** 4.54

**Query** Which protein stability index value is on record for QRITQEQEKKLSFIEALIQQYQCQ [E23C] ?
**Result** 2.37

**Query** Tell me the measured protein stability index of QRICQEQEKKLSFIEALIQQYQEQ [T4C] , please.
**Result** 2.1

**Query** Quick one: protein stability index of QRITQEQEKKLSFIEAIIQQYQEQ [L17I] ?
**Result** 2.28

**Query** If you can, please state the reported protein stability index value of QRITQEQEKKLSFIEALIQPYQEQ [Q20P] .
**Result** 3.43

**Query** What value of protein stability index has been reported for the following variant? QRITQEQEKKLSFIEALAQQYQEQ [I18A]
**Result** 2.65

**Query** I have this variant here, QRITQEQEKKLSFAEALIQQYQEQ [I14A] , and I need its recorded protein stability index.
**Result** 2.41

**Query** Find the recorded protein stability index belonging to QRITQEQEKKLSFIEALIQQYIEQ [Q22I] and report it.
**Result** 1.35

**Query** So what's the measured protein stability index for this one? QRITQSQEKKLSFIEALIQQYQEQ [E6S]
**Result** 2.09

**Query** What does the data say about its protein stability index? Entry: QRITQEHEKKLSFIEALIQQYQEQ [Q7H]
**Result** 2.32

**Query** Fill in: protein stability index of QRITQEQEKKLSFIEALIQQYQAQ [E23A] is ___
**Result** 1.96

**Query** Data request, read-out protein stability index, for QRITQEQEKKLSFIEALIQQYQEE [Q24E]
**Result** 2.14

**Query** Reported protein stability index, variant QRITQEQEKKLSVIEALIQQYQEQ [F13V] : ____
**Result** 3.93

**Query** I am curious: what protein stability index value has been reported for QRITQEDEKKLSFIEALIQQYQEQ [Q7D] ?
**Result** 3.02

**Query** Reported protein stability index, variant QRITQEQEKKLSFIEACIQQYQEQ [L17C] : ____
**Result** 2.23

**Query** // protein stability index lookup, key: QRITQEQEKKLSFIEADIQQYQEQ [L17D]
**Result** 4.58

**Query** Any idea what protein stability index was measured for QRITQEQEKKLSFIIALIQQYQEQ [E15I] ?
**Result** 1.6

**Query** I would be grateful if you could share the reported protein stability index for QRITQEQTKKLSFIEALIQQYQEQ [E8T] .
**Result** 2.28

**Query** Please give the measured protein stability index for this variant: QRITQEQEKKLIFIEALIQQYQEQ [S12I]
**Result** 2.12

**Query** Recorded protein stability index of QRITQEYEKKLSFIEALIQQYQEQ [Q7Y] , please.
**Result** 2.12

**Query** Returns the measured protein stability index for the input variant. Input: QRIDQEQEKKLSFIEALIQQYQEQ [T4D]
**Result** 3.22

**Query** Param item = QRITQEQEKKLSFIEALIQQYQER [Q24R] ; retrieve measured protein stability index.
**Result** 2.06

**Query** What measured protein stability index goes with QRITQEQEKKLSFIEALIQQGQEQ [Y21G] ?
**Result** 3.61

**Query** Recorded protein stability index of QRINQEQEKKLSFIEALIQQYQEQ [T4N] , please.
**Result** 2.59

**Query** State the recorded protein stability index for this entry: QRITQEQEKKLSFIEAAIQQYQEQ [L17A]
**Result** 3.42

**Query** Returns the measured protein stability index for the input variant. Input: QRITQEQEKKLSFPEALIQQYQEQ [I14P]
**Result** 4.55

**Query** Field request: protein stability index | item: QRILQEQEKKLSFIEALIQQYQEQ [T4L]
**Result** 2.63

**Query** Would you kindly share the measured protein stability index for QRITQEQEKKLSFIFALIQQYQEQ [E15F] ?
**Result** 1.92

**Query** What does the record list as protein stability index for QRITQEQEKKLSFYEALIQQYQEQ [I14Y] ?
**Result** 2.87

**Query** So what does the record say about protein stability index for QRITQEQEKKLSFIEALWQQYQEQ [I18W] ?
**Result** 2.7

**Query** Could you tell me which protein stability index is on file for CRITQEQEKKLSFIEALIQQYQEQ [Q1C] ?
**Result** 2.11

**Query** I am curious: what protein stability index value has been reported for QRITQEQEKKLHFIEALIQQYQEQ [S12H] ?
**Result** 2.9

**Query** Which protein stability index reading was recorded for the variant QKITQEQEKKLSFIEALIQQYQEQ [R2K] ?
**Result** 2.26

**Query** Looking for the measured protein stability index of QRITQEQEKKLSFIRALIQQYQEQ [E15R] , can you help?
**Result** 2.16

**Query** Entry QRITQEQEKKLSFICALIQQYQEQ [E15C] has what protein stability index?
**Result** 1.44

**Query** Look up protein stability index for this variant: QRITQEQEKTLSFIEALIQQYQEQ [K10T]
**Result** 2.2

**Query** Could you share which protein stability index value was measured for QRITQEQEKKLSFIERLIQQYQEQ [A16R] ?
**Result** 2.63

**Query** Please look up its protein stability index: QRITQEQEKKLSFGEALIQQYQEQ [I14G]
**Result** 4.31

**Query** Which measured protein stability index value corresponds to QRITQEQEKKLSNIEALIQQYQEQ [F13N] ?
**Result** 4.66

Cited source: the supplement of paper PMC10567573
